# System: ACHN
# protocol summary: NCI tumour cell line growth inhibition, 48 h
Calls of active or inactive are those of the source. No stated cut-off is given here; in the data, active = GI50 up to about 1.1 µM and inactive = higher.
experimental endpoint: GI50

Examples with their reported GI50 follow.
O=C(Nc1nn(C(=O)c2cccnc2)c(=O)s1)c1ccc(Cl)cc1 ... > 100 µM (inactive)
C=C1CC[C@H]2C(=O)OC(c3ccoc3)C[C@]2(C)C/C=C\C=C/1C(=O)OC (some centres not stated) ... > 25 µM (inactive)
OC(Cc1ccc2ccccc2n1)(C(F)(F)Cl)C(F)(F)Cl ... > 10 µM (inactive)

Asked: Any idea what its GI50 is? The compound is O=C1/C(=C\c2ccc(Cl)cc2)N=C(c2ccccc2)N1n1c(=O)cn[nH]c1=S
Given back: > 100 µM (inactive)

Asked: I am curious: what GI50 value has been reported for Cc1cn2c(/C=C3/C(=O)Nc4cccc(Cl)c43)c(Cl)nc2s1 ?
Given back: 20.6 µM (inactive)

Asked: Which GI50 reading was recorded for the compound O=P(Nc1ccccc1)(Oc1ccccc1)N(CCCl)CCCl (configuration not stated) ?
Given back: > 100 µM (inactive)

Asked: For C=C1CCC(OC(C)=O)C2(C)C(OC(C)=O)CC3OC3(C)C2C(OC(C)=O)C2C(C)C(=O)OC2C1Cl (configuration not stated) , what is its reported GI50?
Given back: > 100 µM (inactive)

Asked: Quick check: GI50 of CC1OC2=N[C@@H]1C(=O)N[C@@H](C(C)C)C1=N[C@H](C(=O)N[C@@H](C(C)C)C3=N[C@H](C(=O)N[C@@H](C(C)C)C4=N[C@H](C(=O)N[C@H]2C(C)C)C(C)O4)C(C)O3)C(C)O1 (some centres not stated) ?
Given back: > 10 µM (inactive)

Asked: I have this compound here, C(/C=N/c1ccccc1)=C(/Nc1ccccc1)c1ccc2ccccc2c1 , and I need its recorded GI50.
Given back: 2.39 µM (inactive)

Asked: Data request, read-out GI50, for C[C@]12CC[C@@H]3c4ccc(OC(=O)c5ccccc5)cc4CC[C@H]3[C@@H]1CC[C@@H]2Oc1c2ccccc2nc2ccccc12
Given back: 37 µM (inactive)

Asked: Quick one: GI50 for NC1=Nc2cc(Cl)ccc2Sc2nc3ccccc3n21 ?
Given back: > 100 µM (inactive)

Asked: Requested read-out: GI50. Entry: O=C(O)[C@@H]1CCCN1 [PROLINE]
Given back: > 100 µM (inactive)

====

# Tested on: SK-MEL-2
# protocol summary: NCI tumour cell line growth inhibition, 48 h
Calls of active or inactive are those of the source. No stated cut-off is given here; in the data, active = GI50 up to about 1.1 µM and inactive = higher.
experimental endpoint: GI50

O=C1CC2(CCC3=C(O2)c2ccccc2NC(=O)C3)C(=O)c2ccccc2N1 (configuration not stated) ... > 100 µM (inactive)
COc1cc([C@@H]2c3cc4c(cc3[C@@H](/N=C/c3ccc(C(=O)O[C@@H](C(=O)O[C@H]5C[C@@]6(O)[C@@H](OC(=O)c7ccccc7)[C@@H]7[C@]8(OC(C)=O)CO[C@@H]8C[C@H](O)[C@@]7(C)C(=O)[C@H](OC(C)=O)C(=C5C)C6(C)C)[C@@H](NC(=O)c5ccccc5)c5ccccc5)cc3)[C@H]3COC(=O)[C@H]23)OCO4)cc(OC)c1O ... 0.0335 µM (active)
CCC(c1c[nH]c2ccc(Br)cc12)c1c[nH]c2ccc(Br)cc12 ... 10.6 µM (inactive)
O=C1C=C(O)C(=O)c2c(O)ccc(O)c21 ... > 100 µM (inactive)
Cc1cc2c(cc1Cl)SC(NNC(=O)c1ccco1)=NS2(=O)=O ... > 10 µM (inactive)

Asked: Look up GI50: N#Cc1c(Nc2ccccc2)[n+]([O-])c2ccc(Cl)cc2[n+]1[O-]
Given back: 18 µM (inactive)

Asked: What does the record list as GI50 for CC1(C)C=C(/C=C2/N(S(=O)(=O)C(F)(F)F)C(/C=C3/N(S(=O)(=O)C(F)(F)F)C(C)(C#N)CC3(C)C)=CC2(C)C)N=C1/C=C1/CC(C)(C)C(=O)N1 (configuration not stated) ?
Given back: 29.5 µM (inactive)

Asked: Could you share which GI50 value was measured for CCCc1ccc(NCc2cc(OC)c(OC)c(OC)c2)cc1 ?
Given back: 18.6 µM (inactive)

Asked: // GI50 lookup, key: CCOC(=O)c1c(N/C(S)=N/c2ccccc2)sc2c1CCOC2
Given back: 74.6 µM (inactive)

Asked: Name the recorded GI50 for O=C(NC(OCc1ccccc1)(C(F)(F)F)C(F)(F)F)OCc1ccccc1 .
Given back: 15.3 µM (inactive)

Asked: Give its GI50 value. Item: CC1(C)[N+]([O-])=[N+]([O-])C1(C)Br (configuration not stated)
Given back: > 100 µM (inactive)

Asked: Tell me the measured GI50 of COC(=O)C(Cc1c[nH]c2ccccc12)NP(=O)(O)OCC1OC(n2cc(Br)c(=O)[nH]c2=O)CC1O (configuration not stated) , please.
Given back: > 100 µM (inactive)

Asked: Which GI50 value is on record for O=C(Nc1ccccc1C(=O)O)C(=O)C(C(=O)c1ccccc1-c1ccccc1)C1OC(=O)c2ccccc21 (configuration not stated) ?
Given back: 38 µM (inactive)

====

# Test system: Malme-3M
# protocol summary: NCI tumour cell line growth inhibition, 48 h
Active and inactive are the calls of the source. Rule as the data show it: active = GI50 up to about 1.1 µM and inactive = higher.
Overview of reported GI50 across a group of molecules:

COC(=O)/C=C(/C(=O)OC)c1cc2ccc3c([nH]c4ccccc43)c(C)c-2c1 ... 5.21 µM (inactive)
COC(=O)c1csc(-c2csc(CCNC(=O)OC(C)(C)C)n2)n1 ... > 100 µM (inactive)
CN(C)Cc1cc(C(C)(C)C)cc(CNC2CCCCC2)c1O ... 25.6 µM (inactive)
COc1cccc(NC(=O)CC(=O)N2N=C(N(CCC#N)c3ccccc3C)CC2c2ccccc2)c1 (configuration not stated) ... > 100 µM (inactive)
CCN(CC)CCC(=O)Nc1ccc2sc3ccccc3c(=O)c2n1 ... 23.4 µM (inactive)

Asked: Please report the recorded GI50 for Nc1ncnc2c1ncn2C1OC(C(=O)OCCO)C(O)C1O (configuration not stated) .
Given back: > 100 µM (inactive)

Asked: Name the recorded GI50 for Cc1cc2c(cc1Cl)SC(NNC(=O)c1ccco1)=NS2(=O)=O .
Given back: > 10 µM (inactive)

====

Listed here are molecules together with their documented GI50.
# System: UACC-62
# protocol summary: NCI tumour cell line growth inhibition, 48 h
Calls of active or inactive are those of the source. Cut-off read from the data, not from the text of the source: active = GI50 up to about 1.1 µM and inactive = higher.

Cc1cn2c(/C=C3/C(=O)Nc4cccc(Cl)c43)c(Cl)nc2s1 ... 19.6 µM (inactive)

Please turn your attention to the following entry.
Asked: Would you kindly share the measured GI50 for COc1ccc2oc(-c3ccncc3)cc(=O)c2c1 ?
Given back: 65.2 µM (inactive)

====

Entries and their GI50 values follow.
# System: U-251
# protocol summary: NCI tumour cell line growth inhibition, 48 h
Calls of active or inactive are those of the source. Rule as the data show it: active = GI50 up to about 1.1 µM and inactive = higher.

Solved cases below.
C[S+]=c1sc2ccccc2s1 ... > 100 µM (inactive)
COC1(OC)C2(Cl)C(Cl)=C(Cl)C1(Cl)C1C=CC=CC12 (stereo unspecified) ... > 100 µM (inactive)
Cc1ccc(OCC2OC(n3cnc4nc(N)nc(Cl)c43)CC2Oc2ccc(C)cc2)cc1 (stereo unspecified) ... 29.6 µM (inactive)

Asked: Query: GI50; subject: CC(=O)OCC1OC(n2c(C#N)cc(=O)[nH]c2=O)CC1OC(C)=O (stereo unspecified)
Given back: > 100 µM (inactive)

Asked: Quick check: GI50 of O=C(O)c1cc2ccc3ccccc3c2oc1=O ?
Given back: > 100 µM (inactive)

Asked: Bench note: what GI50 did CSCCC(NC(=O)C(Cc1ccccc1)NC(=O)CNC(=O)CNC(=O)C(N)Cc1ccc(O)cc1)C(=O)O (stereo unspecified) show?
Given back: > 100 µM (inactive)

====

# Tested on: LOX IMVI
# protocol summary: NCI tumour cell line growth inhibition, 48 h
The source made the active and inactive calls. Rule as the data show it: active = GI50 up to about 1.1 µM and inactive = higher.
experimental endpoint: GI50

COC(=O)C(Cc1c[nH]c2ccccc12)NP(=O)(O)OCC1OC(n2cc(Br)c(=O)[nH]c2=O)CC1O (stereo not given) ... > 100 µM (inactive)
COC(=O)CCC(NC(=S)N/N=C(\C)c1cnccn1)C(=O)OC (stereo not given) ... 31.6 µM (inactive)
S=C1C(CCCOCc2ccccc2)C2CCCC23CC2(CCN13)OCCS2 (stereo not given) ... > 10 µM (inactive)
COc1ccc(C(=O)NCCN(C)C)c2nc3ccccc3nc12 ... 2.01 µM (inactive)

Then there is this molecule:
Asked: Return reported GI50; argument: CC(C)(C)c1ccnc(/N=C2\N/C(=N\c3cc(C(C)(C)C)ccn3)c3ccccc32)c1
Given back: 35.9 µM (inactive)

====

# Tested on: HCT-15
# note: boundary value 10 µM maps to criterion not met; GI50 below it maps to criterion met

Past entries and their recorded results:
COC(=O)c1csc(-c2csc(CCNC(=O)OC(C)(C)C)n2)n1 ... criterion not met
Nc1ncnc2c1ncn2C1OC(COC2C(CO)OC(OC(C(=O)O)C(O)C(OP(=O)(O)O)C(O)C(=O)O)C(O)C2O)C(O)C1O (configuration not stated) ... criterion not met
CN(C)CCNC(=O)c1ccc(NC(=O)c2nc([N+](=O)[O-])cn2C)cc1 ... criterion not met
Cc1ccc(/N=C2\OP(=O)(Nc3ccc(C)cc3)Oc3ccccc32)cc1 (configuration not stated) ... criterion not met
C=CCN(c1cc(OC)c2[nH]c(C(=O)O)c(C)c2c1[N+](=O)[O-])S(C)(=O)=O ... criterion not met
O=C(Nc1ccccc1C(=O)O)C(=O)C(C(=O)c1ccccc1-c1ccccc1)C1OC(=O)c2ccccc21 (configuration not stated) ... criterion not met

Asked: Strictly below 10 µM: is that where GI50 of CC(N)Cc1ccc(C(=O)Cl)cc1 (configuration not stated) sits?
Given back: criterion not met

Asked: Strictly below 10 µM: is that where GI50 of O=C1N/C(=N/N=C\c2ccccc2)N/C1=C/c1ccc(Cl)cc1 sits?
Given back: criterion not met

Asked: Quick check: does COc1c(O)cc2c(c1O)C(=O)C1=C(CCCC1)C2=O have GI50 under 10 µM?
Given back: criterion not met

Asked: Is GI50 strictly under 10 µM for the entry Cc1cccc2c1Oc1ccccc1C2NC(=O)c1ccc([N+](=O)[O-])cc1 (configuration not stated) ?
Given back: criterion not met
